- targetEntity: human FLT3 protein (FLT3 (WT)) (Homo sapiens)
- Construct: human FLT3 protein (intracellular region, 564 to 993 aa); GST; purchased Carna Biosciences; host or cells: baculovirus expression system
- Sequence (P36888 564-993): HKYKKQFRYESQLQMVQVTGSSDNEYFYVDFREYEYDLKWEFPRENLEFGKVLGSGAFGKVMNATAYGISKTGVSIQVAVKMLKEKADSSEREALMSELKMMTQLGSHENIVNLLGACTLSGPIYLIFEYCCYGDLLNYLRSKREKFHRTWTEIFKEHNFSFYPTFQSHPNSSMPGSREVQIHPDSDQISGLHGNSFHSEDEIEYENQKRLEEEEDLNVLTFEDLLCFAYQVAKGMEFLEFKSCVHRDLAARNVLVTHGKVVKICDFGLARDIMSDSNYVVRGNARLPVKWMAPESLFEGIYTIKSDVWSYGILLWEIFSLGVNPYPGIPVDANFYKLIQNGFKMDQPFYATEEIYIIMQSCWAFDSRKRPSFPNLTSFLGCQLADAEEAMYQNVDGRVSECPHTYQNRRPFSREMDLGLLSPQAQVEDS
- testMethodNotes: FLT3 inhibition test (FLT3 enzyme inhibition, time-resolved fluorescence of substrate peptide phosphorylation)
- Type: biochemical
- conditionContext: GST-fused human FLT3 (564 to 993 aa), ATP 50 μM; read-out: FLT3 (WT) enzyme inhibition activity
pIC50: −log10 of the molar value.
Listed below: pIC50 values for each entry.
measureName: pIC50

>>> print(df.to_string())
                                        mol                              targetentity  valuemeasured
0  C[C@@H](C(=O)NCCCC#Cc1cnc(Nc2ccc(C#N)cc2)nc1NC1CCCC1)N(C)C(=O)/C=C/CN(C)C  human FLT3 protein (FLT3 (WT)) (Homo sapiens)         > 8.00
1  C[C@@H](C(=O)N[C@H]1CCC[C@@H](C#Cc2cnc(Nc3ccc(C#N)cc3)nc2N2CCOCC2)C1)N(C)C(=O)/C=C/CN(C)C  human FLT3 protein (FLT3 (WT)) (Homo sapiens)         > 8.00
2  CCCNc1nc(Nc2cccc(F)c2)ncc1C#Cc1cc(NC(=O)[C@H](C)N(C)C(=O)/C=C/CN(C)C)ccc1F  human FLT3 protein (FLT3 (WT)) (Homo sapiens)         > 8.00
3  CCCNc1nc(Nc2cccc(F)c2)ncc1C#CCCCNC(=O)[C@@H]1C[C@@H](O)CN1C(=O)/C=C/CN(C)C  human FLT3 protein (FLT3 (WT)) (Homo sapiens)         > 8.00
4  CCCNc1nc(Nc2ccc(C(N)=O)cc2)ncc1C(=O)Nc1cccc(NC(=O)[C@H](C)N(C)C(=O)/C=C/CNCC(F)(F)F)c1  human FLT3 protein (FLT3 (WT)) (Homo sapiens)         > 8.00
5  CCNc1nc(Nc2ccc3cn[nH]c3c2)ncc1C#CCCCNC(=O)[C@@H]1CCCN1C(=O)/C=C/CN(C)C  human FLT3 protein (FLT3 (WT)) (Homo sapiens)         > 8.00
6  CCCNc1nc(NCCc2ccncc2)ncc1C(=O)Nc1cccc(NC(=O)C(C)(C)NC(=O)/C=C/CN(C)C)c1  human FLT3 protein (FLT3 (WT)) (Homo sapiens)         > 8.00
7  CCCNc1nc(Nc2ccc(F)nc2)ncc1C#CCCCNC(=O)[C@H](C)N(C)C(=O)/C=C/CN(C)C  human FLT3 protein (FLT3 (WT)) (Homo sapiens)         > 8.00
